Reference for the values: the supplement of paper PMC5844555

Test system: RB1
ASSAY_PROTOCOL: 3' UTR reporter interaction score (median-centred robust z-score of log2 firefly/Renilla activity); higher = less repression of the 3' UTR reporter
TEST_CONDITIONS: HEK293T; 48 h
Listed below: 3' UTR reporter interaction score values for each entry.

{"columns": ["CONSTRUCT_SEQUENCE", "3' UTR reporter interaction score"],
 "data": [
  ["AAAGUGCUUCCUUUUAGAGGGUU", 1.13],
  ["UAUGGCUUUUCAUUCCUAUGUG", -1.89],
  ["AUUGACACUUCUGUGAGUAG", 0.465],
  ["AGGUUACCCGAGCAACUUUGCA", 2.97],
  ["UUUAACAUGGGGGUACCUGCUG", 0.395],
  ["GAAAACAGCAAUUACCUUUGCA", 0.347],
  ["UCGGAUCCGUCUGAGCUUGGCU", -0.185],
  ["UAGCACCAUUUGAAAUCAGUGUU", -0.25],
  ["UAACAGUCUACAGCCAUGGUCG", -1.41],
  ["UGAAGGUCUACUGUGUGCCAG", -1.18],
  ["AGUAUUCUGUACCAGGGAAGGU", -0.386],
  ["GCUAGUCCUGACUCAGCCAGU", 0.4],
  ["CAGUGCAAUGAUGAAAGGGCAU", 1.03],
  ["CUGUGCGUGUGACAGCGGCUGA", 1.29],
  ["AGCUCGGUCUGAGGCCCCUCAG", 3.69],
  ["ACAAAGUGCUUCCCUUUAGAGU", -0.344],
  ["UGUCAGUUUGUCAAAUACCCC", 0.229],
  ["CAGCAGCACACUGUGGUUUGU", -0.141],
  ["CACGCUCAUGCACACACCCAC", -0.279],
  ["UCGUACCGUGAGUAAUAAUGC", -1.12],
  ["CUGGACUUGGAGUCAGAAGGCC", -0.493],
  ["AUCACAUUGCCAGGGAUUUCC", 0.826],
  ["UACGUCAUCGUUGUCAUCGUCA", 0.229],
  ["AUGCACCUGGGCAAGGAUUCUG", -0.483],
  ["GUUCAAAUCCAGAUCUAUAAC", -0.538],
  ["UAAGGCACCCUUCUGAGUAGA", -1.28],
  ["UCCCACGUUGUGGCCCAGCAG", -2.41],
  ["UCAGUGCAUGACAGAACUUGGG", -2.16],
  ["CAUCCCUUGCAUGGUGGAGGGU", -1.51],
  ["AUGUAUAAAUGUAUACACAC", -0.33],
  ["GGAGAAAUUAUCCUUGGUGUGU", 0.166],
  ["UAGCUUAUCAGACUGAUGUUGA", 0.943],
  ["UGAGAUGAAGCACUGUAGCUCA", -0.192],
  ["AAUCAUACACGGUUGACCUAUU", -0.342],
  ["UAGAUAAAAUAUUGGUACCUG", -0.00826],
  ["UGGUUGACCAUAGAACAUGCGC", 3.51],
  ["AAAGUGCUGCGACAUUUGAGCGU", 1.06],
  ["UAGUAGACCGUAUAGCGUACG", 0.459],
  ["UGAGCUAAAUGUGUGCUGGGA", -0.0745],
  ["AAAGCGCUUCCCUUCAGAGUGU", -1.21],
  ["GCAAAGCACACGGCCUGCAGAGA", -1.65],
  ["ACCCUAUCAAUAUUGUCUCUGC", -0.979],
  ["AUUCUGCAUUUUUAGCAAGU", 0.0642],
  ["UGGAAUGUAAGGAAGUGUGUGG", 1.33],
  ["UGGAAGACUAGUGAUUUUGUUG", 0.176],
  ["CAACCUGGAGGACUCCAUGCUG", -2.92],
  ["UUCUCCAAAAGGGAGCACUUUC", 1.31],
  ["GAAGUGUGCCGUGGUGUGUCU", 0.538],
  ["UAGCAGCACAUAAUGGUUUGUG", -0.091],
  ["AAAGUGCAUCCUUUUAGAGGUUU", -0.148],
  ["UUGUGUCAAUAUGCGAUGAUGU", 0.229],
  ["AAAAGUGCUUACAGUGCAGGUAGC", 0.176],
  ["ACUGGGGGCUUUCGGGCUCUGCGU", 0.988],
  ["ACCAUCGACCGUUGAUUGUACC", -0.388],
  ["AAAGUGCUUCUCUUUGGUGGGUU", 0.799],
  ["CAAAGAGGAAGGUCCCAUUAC", -0.878],
  ["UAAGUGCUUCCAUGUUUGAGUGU", 0.167]
]}
